Ref: ChEMBL document CHEMBL1687816

- assay.details: AUC (0 to infinity) in HIV-seronegative healthy volunteers at 400 mg, po administered as single dose by LC-MS/MS in presence of albuminium, magnesium and simethicone-containg antacid
- Assay type: ADME, organism-based
- Set-up: dose 400 mg, time infinity, route oral
- stated.conditions: human, plasma
test.readout: AUC(0-inf) (ng·h/mL)

>>> readout_value("Cc1nnc(C(=O)NC(C)(C)c2nc(C(=O)NCc3ccc(F)cc3)c(O)c(=O)n2C)o1 [RALTEGRAVIR]")
3420

* * *

- assay.details: AUC (0 to infinity) in HIV-seronegative healthy volunteers at 400 mg, po administered as single dose by LC-MS/MS
- Type: ADME, organism-based
- Set-up: dose 400 mg, route oral, time infinity
- stated.conditions: human, plasma
test.readout: AUC(0-inf) (ng·h/mL)

>>> readout_value("Cc1nnc(C(=O)NC(C)(C)c2nc(C(=O)NCc3ccc(F)cc3)c(O)c(=O)n2C)o1")
3540

* * *

- assay.details: Primary phase half life in human at 400 mg BID
- Type: ADME, organism-based
- stated.conditions: in vivo, read-out: alphat1/2 (converted)
test.readout: half-life (h)

>>> readout_value("Cc1nnc(C(=O)NC(C)(C)c2nc(C(=O)NCc3ccc(F)cc3)c(O)c(=O)n2C)o1 [RALTEGRAVIR]")
1

* * *

- assay.details: AUC (0 to 12 hrs) in HIV-seronegative healthy volunteers at 400 mg, po administered as single dose by LC-MS/MS in presence of albuminium, magnesium and simethicone-containg antacid
- Type: ADME, organism-based
- Parameters: dose 400 mg, time < 12 hr, route oral
- stated.conditions: human, plasma
test.readout: AUC(0-t) at 12 h (ng·h/mL)

>>> readout_value("Cc1nnc(C(=O)NC(C)(C)c2nc(C(=O)NCc3ccc(F)cc3)c(O)c(=O)n2C)o1")
3300

* * *

- assay.details: AUC (0 to 12 hrs) in HIV-seronegative healthy volunteers at 400 mg, po administered as single dose by LC-MS/MS
- Assay type: ADME, organism-based
- Set-up: dose 400 mg, time < 12 hr, route oral
- stated.conditions: human, plasma
test.readout: AUC(0-t) at 12 h (ng·h/mL)

>>> readout_value("Cc1nnc(C(=O)NC(C)(C)c2nc(C(=O)NCc3ccc(F)cc3)c(O)c(=O)n2C)o1")
3040

* * *

- assay.details: Terminal half life in human at 400 mg BID
- Type: ADME, organism-based
- stated.conditions: in vivo, read-out: beta t1/2 (converted)
test.readout: half-life (h)

>>> readout_value("Cc1nnc(C(=O)NC(C)(C)c2nc(C(=O)NCc3ccc(F)cc3)c(O)c(=O)n2C)o1")
9

* * *

- assay.details: Tmax in HIV-seronegative healthy volunteers at 400 mg, po administered as single dose by LC-MS/MS in presence of albuminium, magnesium and simethicone-containg antacid
- Format: ADME, organism-based
- stated.conditions: human, in vivo
test.readout: Tmax (h)

>>> readout_value("Cc1nnc(C(=O)NC(C)(C)c2nc(C(=O)NCc3ccc(F)cc3)c(O)c(=O)n2C)o1")
1
